Biological target: Serine/threonine-protein kinase PAK 5 (Homo sapiens) (UniProt Q9P286)
Sequence (Q9P286 whole entry, looked up): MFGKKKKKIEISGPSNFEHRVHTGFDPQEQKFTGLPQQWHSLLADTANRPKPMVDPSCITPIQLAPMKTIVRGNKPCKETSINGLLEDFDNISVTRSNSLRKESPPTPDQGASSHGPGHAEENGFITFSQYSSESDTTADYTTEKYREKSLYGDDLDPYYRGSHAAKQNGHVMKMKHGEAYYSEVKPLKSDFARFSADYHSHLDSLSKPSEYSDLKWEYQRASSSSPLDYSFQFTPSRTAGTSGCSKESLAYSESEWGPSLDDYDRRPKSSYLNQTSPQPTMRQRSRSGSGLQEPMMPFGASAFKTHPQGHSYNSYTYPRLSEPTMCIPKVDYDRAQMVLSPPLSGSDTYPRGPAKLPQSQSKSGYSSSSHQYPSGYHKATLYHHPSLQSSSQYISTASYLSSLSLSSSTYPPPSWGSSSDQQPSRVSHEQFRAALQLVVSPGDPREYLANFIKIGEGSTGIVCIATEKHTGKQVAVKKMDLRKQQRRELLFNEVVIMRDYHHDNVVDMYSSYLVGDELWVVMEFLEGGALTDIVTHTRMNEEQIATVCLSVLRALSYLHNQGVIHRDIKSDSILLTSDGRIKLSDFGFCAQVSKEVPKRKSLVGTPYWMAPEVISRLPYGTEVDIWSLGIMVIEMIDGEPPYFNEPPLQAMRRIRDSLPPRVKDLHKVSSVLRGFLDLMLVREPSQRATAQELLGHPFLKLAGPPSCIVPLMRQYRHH
Settings: at 1 µM
Description: GSK_PKIS: PAK5 mean inhibition at 1 uM [Nanosyn]
Catalogue of inhibition values
// return numeric value only (unit: %, not printed)

# annotated cases, reported inhibition shown
NS(=O)(=O)c1cccc(N/C=C2\C(=O)Nc3ccccc32)c1	-8.7
N#Cc1ccc2c(-c3ccnc(NC4CC4)n3)c(-c3ccc(F)cc3)nn2c1	3.22

compound Cc1c2ccc(N(C)c3ccnc(Nc4cccc(S(N)(=O)=O)c4)n3)cc2nn1C , inhibition observed: -1.02

compound CCS(=O)(=O)c1ccc(OC)c(Nc2ncc(-c3cccc(F)c3)o2)c1 , inhibition observed: 9.85

compound CC1(C)CC(n2cnc(-c3ccc(F)cc3)c2-c2ccnc(N)n2)CC(C)(C)N1 , inhibition observed: 0.79

compound CCOc1ccc2c(-c3ccnc(Nc4cc(OC)cc(C(F)(F)F)c4)n3)cnn2n1 , inhibition observed: 8.65

compound Fc1cccc(COc2ccc(Nc3ncncc3C#Cc3ccccc3)cc2Cl)c1 , inhibition observed: 0.61

compound COc1cc(N2CCN(C(C)C)CC2)ccc1Nc1nc(Nc2cccc3ncccc23)c2cc[nH]c2n1 , inhibition observed: -1.65

compound COc1ccccc1-c1cc(/C=C2\C(=O)Nc3ncc(Br)cc32)cc(Br)c1O , inhibition observed: 0.44

compound COc1c(C(N)=O)cc(-c2ccc(Cl)cc2)cc1-c1ccc(S(N)(=O)=O)cc1 , inhibition observed: 3.56

====

Test system: Mast/stem cell growth factor receptor Kit (Homo sapiens), P10721 [V560G]
Sequence (P10721 whole entry V560G): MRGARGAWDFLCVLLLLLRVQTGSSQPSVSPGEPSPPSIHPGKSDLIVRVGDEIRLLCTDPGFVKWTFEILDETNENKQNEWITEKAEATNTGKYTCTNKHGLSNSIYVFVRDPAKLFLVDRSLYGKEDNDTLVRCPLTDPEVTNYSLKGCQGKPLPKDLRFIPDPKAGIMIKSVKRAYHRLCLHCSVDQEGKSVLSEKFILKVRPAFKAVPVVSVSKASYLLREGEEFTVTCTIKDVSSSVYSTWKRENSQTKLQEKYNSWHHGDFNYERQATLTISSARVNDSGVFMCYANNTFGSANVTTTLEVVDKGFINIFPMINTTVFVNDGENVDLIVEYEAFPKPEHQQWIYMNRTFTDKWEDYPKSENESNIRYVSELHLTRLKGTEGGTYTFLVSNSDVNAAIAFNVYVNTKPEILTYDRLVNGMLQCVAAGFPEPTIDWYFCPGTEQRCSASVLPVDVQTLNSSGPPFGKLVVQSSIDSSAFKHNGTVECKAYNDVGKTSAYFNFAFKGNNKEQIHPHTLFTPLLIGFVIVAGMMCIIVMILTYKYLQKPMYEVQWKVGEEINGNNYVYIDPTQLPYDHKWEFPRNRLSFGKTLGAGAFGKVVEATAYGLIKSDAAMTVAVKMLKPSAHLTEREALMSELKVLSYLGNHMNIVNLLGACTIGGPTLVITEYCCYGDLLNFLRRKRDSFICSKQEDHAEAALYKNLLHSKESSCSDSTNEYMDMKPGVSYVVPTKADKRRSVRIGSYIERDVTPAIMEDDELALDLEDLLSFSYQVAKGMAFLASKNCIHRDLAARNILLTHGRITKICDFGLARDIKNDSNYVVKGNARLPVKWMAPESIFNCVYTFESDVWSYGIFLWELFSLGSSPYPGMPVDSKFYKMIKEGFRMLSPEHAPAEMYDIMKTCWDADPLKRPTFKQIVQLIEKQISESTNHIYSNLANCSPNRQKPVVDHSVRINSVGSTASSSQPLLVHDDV
Details: at 0.1 µM
Catalogue of inhibition values
// return numeric value only (unit: %, not printed)

CCCNc1cccc(-n2ncc3c(N/N=C/c4ccncc4)ncnc32)c1	7.17
O=C(Nc1n[nH]c2nnc(-c3cccnc3)cc12)C1CC1	2.26
COc1cc2c(cc1Nc1nc(Nc3cccc(F)c3C(N)=O)c3cc[nH]c3n1)N(C(=O)CN1CCN(C(C)C)CC1)CC2	-3.41

Let us examine a further case.
compound CS(=O)(=O)Nc1ccc(-c2cc(-c3ccccc3)cc(C(N)=O)c2N)cc1 , inhibition observed: -0.45

====

Target: Serine/threonine-protein kinase B-raf (Homo sapiens) (UniProt P15056);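 further: reported value is the mean percent inhibition of BRAF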
Sequence (P15056 whole entry): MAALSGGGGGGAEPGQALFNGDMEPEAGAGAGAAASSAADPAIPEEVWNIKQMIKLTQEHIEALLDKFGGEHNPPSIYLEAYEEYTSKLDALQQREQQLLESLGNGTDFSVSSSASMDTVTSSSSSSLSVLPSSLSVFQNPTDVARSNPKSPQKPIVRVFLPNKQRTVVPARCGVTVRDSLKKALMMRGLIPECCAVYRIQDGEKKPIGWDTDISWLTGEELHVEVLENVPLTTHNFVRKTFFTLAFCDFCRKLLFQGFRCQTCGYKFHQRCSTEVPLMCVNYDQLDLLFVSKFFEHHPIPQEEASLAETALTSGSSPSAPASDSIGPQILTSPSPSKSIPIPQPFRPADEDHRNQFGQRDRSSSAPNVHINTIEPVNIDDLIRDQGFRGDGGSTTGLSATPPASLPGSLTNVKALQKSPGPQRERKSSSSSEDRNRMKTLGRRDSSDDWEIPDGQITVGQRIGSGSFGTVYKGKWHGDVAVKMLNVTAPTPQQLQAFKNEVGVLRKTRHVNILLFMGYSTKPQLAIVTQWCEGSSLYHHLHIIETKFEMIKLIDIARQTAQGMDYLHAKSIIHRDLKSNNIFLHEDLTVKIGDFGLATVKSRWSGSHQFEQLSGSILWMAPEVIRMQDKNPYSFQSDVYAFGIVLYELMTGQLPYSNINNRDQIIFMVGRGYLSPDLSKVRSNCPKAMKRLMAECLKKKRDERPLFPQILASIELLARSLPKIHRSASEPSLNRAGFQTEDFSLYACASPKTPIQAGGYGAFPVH
Details: at 1 µM
measure: inhibition (%)
// return numeric value only (unit: %, not printed)

# annotated cases, reported inhibition shown
CS(=O)(=O)CCNCc1ccoc1-c1ccc2ncnc(Nc3ccc(OCc4ccccc4)cc3)c2c1	1.49
COc1cccc(Nc2nccc(-c3cnn4ncccc34)n2)c1	31.6

Entry FC(F)(F)CNc1nccc(-c2cnn3ncccc23)n1 ; assay system Serine/threonine-protein kinase B-raf (Homo sapiens) (UniProt P15056); inhibition recorded at 3.85

Entry OCCCNc1nccc(-c2c(-c3ccc(F)cc3)nn3cc(C(F)(F)F)ccc23)n1 ; assay system Serine/threonine-protein kinase B-raf (Homo sapiens) (UniProt P15056); inhibition recorded at 11.6

Entry CNC(=O)c1sc(-n2cnc3cc(OC)c(OC)cc32)cc1OCc1ccccc1C(F)(F)F ; assay system Serine/threonine-protein kinase B-raf (Homo sapiens) (UniProt P15056); inhibition recorded at 6.14

====

Molecular target: RAC-beta serine/threonine-protein kinase (Homo sapiens) (UniProt P31751)
Sequence (P31751 whole entry): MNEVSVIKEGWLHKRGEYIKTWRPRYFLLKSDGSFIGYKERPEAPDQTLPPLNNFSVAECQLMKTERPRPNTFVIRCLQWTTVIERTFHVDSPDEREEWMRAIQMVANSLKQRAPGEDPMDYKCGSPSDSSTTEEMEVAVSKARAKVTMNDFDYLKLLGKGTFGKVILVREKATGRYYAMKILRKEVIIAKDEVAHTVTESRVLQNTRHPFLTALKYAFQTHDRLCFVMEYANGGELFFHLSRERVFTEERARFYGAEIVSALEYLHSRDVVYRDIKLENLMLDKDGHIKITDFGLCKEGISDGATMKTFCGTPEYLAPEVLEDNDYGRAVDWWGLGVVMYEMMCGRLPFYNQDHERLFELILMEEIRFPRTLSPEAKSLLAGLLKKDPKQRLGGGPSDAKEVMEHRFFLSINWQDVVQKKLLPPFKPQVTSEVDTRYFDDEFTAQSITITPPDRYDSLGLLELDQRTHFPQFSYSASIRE
Settings: at 1 µM
Description: GSK_PKIS: AKT2 mean inhibition at 1 uM [Nanosyn]
measure: inhibition (%)
// return numeric value only (unit: %, not printed)

# annotated cases, reported inhibition shown
CS(=O)(=O)CCNCc1ccoc1-c1ccc2ncnc(Nc3ccc(OCc4ccccc4)cc3)c2c1	0.41
CN(C)CCNC(=O)Nc1ccc(N(C)c2ccnc(Nc3ccc(CS(C)(=O)=O)cc3)n2)cc1	0.96
Cn1c(-c2nonc2N)nc2cnccc21	1.66
COc1ccc2ncn(-c3cc(O[C@H](C)c4ccccc4C(F)(F)F)c(C(N)=O)s3)c2c1	-0.19

Let us examine a further case.
compound O=C(O[C@H]1CN[C@H](C#Cc2cc3ncnc(Nc4ccc(OCc5cccc(F)c5)c(Cl)c4)c3s2)C1)N1CCOCC1 , inhibition observed: 2.72

====

Target: 5'-AMP-activated protein kinase catalytic subunit alpha-1 (Homo sapiens) (UniProt Q13131);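 further: mean percent inhibition of the AMPK A1B1G1 complex (alpha1 beta1 gamma1) in the GSK PKIS kinase inhibitor screen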
Sequence (Q13131 whole entry, looked up): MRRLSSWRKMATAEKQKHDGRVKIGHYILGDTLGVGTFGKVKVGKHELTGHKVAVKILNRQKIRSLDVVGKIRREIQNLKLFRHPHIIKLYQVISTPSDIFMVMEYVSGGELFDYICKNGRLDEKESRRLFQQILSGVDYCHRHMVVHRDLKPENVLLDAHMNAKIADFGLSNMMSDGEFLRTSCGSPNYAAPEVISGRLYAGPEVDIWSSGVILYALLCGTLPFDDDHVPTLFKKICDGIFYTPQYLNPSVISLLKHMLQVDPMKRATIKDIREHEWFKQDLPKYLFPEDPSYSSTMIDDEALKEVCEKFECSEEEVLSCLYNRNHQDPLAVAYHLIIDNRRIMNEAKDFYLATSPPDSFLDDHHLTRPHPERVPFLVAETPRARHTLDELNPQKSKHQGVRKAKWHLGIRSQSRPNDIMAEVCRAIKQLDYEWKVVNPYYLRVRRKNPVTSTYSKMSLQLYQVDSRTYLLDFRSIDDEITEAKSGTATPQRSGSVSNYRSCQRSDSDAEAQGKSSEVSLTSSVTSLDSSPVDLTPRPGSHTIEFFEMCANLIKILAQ
Settings: at 1 µM
Catalogue of inhibition values
// return numeric value only (unit: %, not printed)

NS(=O)(=O)c1cccc(N/C=C2\C(=O)Nc3ccccc32)c1	12

Let us examine a further case.
molecule O=C(O[C@H]1CN[C@H](C#Cc2cc3ncnc(Nc4ccc(OCc5cccc(F)c5)c(Cl)c4)c3s2)C1)N1CCOCC1 , inhibition observed: 4.92

====

Target: Hepatocyte growth factor receptor (Homo sapiens) (UniProt P08581);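 further: reported values are means of MET inhibition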
Sequence (P08581 whole entry): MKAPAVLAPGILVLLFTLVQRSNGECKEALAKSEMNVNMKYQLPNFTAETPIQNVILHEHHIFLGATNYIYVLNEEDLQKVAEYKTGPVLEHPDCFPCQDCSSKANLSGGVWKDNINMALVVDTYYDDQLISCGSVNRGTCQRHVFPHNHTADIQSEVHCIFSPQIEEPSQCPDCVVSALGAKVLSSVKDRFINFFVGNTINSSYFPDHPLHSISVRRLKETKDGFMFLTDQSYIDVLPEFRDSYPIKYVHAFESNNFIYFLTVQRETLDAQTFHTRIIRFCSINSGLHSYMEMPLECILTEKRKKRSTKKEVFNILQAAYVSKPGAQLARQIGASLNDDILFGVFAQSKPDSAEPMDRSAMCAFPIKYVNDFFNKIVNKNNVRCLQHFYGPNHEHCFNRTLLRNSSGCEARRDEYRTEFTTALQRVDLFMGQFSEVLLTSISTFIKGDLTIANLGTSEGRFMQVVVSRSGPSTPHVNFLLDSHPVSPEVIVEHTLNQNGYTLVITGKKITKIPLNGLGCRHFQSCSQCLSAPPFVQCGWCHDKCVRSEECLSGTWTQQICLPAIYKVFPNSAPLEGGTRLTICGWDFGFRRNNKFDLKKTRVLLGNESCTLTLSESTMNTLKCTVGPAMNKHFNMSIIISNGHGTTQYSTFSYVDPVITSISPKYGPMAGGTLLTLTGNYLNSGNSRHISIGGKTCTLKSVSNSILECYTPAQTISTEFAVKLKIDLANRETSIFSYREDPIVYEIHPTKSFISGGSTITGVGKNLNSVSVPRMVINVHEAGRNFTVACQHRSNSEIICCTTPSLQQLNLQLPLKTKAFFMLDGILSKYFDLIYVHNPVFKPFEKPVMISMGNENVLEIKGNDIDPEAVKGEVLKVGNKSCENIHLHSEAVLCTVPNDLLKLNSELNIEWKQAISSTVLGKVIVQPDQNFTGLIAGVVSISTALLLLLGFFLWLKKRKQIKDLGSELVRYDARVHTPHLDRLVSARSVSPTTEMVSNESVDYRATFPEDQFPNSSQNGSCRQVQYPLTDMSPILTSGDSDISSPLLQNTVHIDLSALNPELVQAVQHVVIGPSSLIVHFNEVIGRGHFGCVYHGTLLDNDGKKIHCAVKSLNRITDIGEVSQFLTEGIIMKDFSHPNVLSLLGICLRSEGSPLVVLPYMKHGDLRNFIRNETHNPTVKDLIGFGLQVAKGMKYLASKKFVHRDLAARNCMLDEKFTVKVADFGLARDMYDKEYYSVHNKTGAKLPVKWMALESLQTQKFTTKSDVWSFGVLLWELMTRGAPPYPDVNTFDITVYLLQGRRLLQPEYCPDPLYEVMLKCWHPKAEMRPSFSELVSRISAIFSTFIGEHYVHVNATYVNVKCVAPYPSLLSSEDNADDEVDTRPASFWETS
Conditions: at 0.1 µM
measure: inhibition
Remember to put the unit after the number in your answer.

# annotated cases, reported inhibition shown
NC(=O)c1ccc2c(-c3ccnc(NCCCO)n3)c(-c3ccc(F)cc3)nn2c1	7.18%
Cn1c(-c2nonc2N)nc2cnccc21	3.78%
NS(=O)(=O)c1ccc(N/N=C2\C(=O)Nc3cccc(CCc4ccncc4)c32)cc1	10.5%

Entry CNC(=O)c1ncccc1Nc1nc(Nc2cc3c(cc2OC)CCCN3C(=O)CN(C)C)nc2[nH]ccc12 ; assay system Hepatocyte growth factor receptor (Homo sapiens) (UniProt P08581); inhibition recorded at 6.6%

Entry COc1ccc2ncn(-c3cc(O[C@H](C)c4ccccc4C(F)(F)F)c(C(N)=O)s3)c2c1 ; assay system Hepatocyte growth factor receptor (Homo sapiens) (UniProt P08581); inhibition recorded at -3.32%

Entry CS(=O)(=O)Nc1ccc(-c2cc(-c3ccccc3)cc(C(N)=O)c2N)cc1 ; assay system Hepatocyte growth factor receptor (Homo sapiens) (UniProt P08581); inhibition recorded at -1.07%

Entry CN(C)CCNC(=O)Nc1ccc(N(C)c2ccnc(Nc3ccc(CS(C)(=O)=O)cc3)n2)cc1 ; assay system Hepatocyte growth factor receptor (Homo sapiens) (UniProt P08581); inhibition recorded at 5.93%

Entry N#Cc1ccc2c(-c3ccnc(NC4CC4)n3)c(-c3ccc(F)cc3)nn2c1 ; assay system Hepatocyte growth factor receptor (Homo sapiens) (UniProt P08581); inhibition recorded at 3.34%

Entry OCCCNc1nccc(-c2c(-c3ccc(F)cc3)nn3cc(C(F)(F)F)ccc23)n1 ; assay system Hepatocyte growth factor receptor (Homo sapiens) (UniProt P08581); inhibition recorded at 1.57%

Entry CCS(=O)(=O)c1ccc(OC)c(Nc2ncc(-c3cccc(C(C)=O)c3)o2)c1 ; assay system Hepatocyte growth factor receptor (Homo sapiens) (UniProt P08581); inhibition recorded at 1.95%

====

Biological target: Serine/threonine-protein kinase Nek9 (Homo sapiens) (UniProt Q8TD19);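 further: each value is a mean percent inhibition of NEK9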
Sequence (whole entry): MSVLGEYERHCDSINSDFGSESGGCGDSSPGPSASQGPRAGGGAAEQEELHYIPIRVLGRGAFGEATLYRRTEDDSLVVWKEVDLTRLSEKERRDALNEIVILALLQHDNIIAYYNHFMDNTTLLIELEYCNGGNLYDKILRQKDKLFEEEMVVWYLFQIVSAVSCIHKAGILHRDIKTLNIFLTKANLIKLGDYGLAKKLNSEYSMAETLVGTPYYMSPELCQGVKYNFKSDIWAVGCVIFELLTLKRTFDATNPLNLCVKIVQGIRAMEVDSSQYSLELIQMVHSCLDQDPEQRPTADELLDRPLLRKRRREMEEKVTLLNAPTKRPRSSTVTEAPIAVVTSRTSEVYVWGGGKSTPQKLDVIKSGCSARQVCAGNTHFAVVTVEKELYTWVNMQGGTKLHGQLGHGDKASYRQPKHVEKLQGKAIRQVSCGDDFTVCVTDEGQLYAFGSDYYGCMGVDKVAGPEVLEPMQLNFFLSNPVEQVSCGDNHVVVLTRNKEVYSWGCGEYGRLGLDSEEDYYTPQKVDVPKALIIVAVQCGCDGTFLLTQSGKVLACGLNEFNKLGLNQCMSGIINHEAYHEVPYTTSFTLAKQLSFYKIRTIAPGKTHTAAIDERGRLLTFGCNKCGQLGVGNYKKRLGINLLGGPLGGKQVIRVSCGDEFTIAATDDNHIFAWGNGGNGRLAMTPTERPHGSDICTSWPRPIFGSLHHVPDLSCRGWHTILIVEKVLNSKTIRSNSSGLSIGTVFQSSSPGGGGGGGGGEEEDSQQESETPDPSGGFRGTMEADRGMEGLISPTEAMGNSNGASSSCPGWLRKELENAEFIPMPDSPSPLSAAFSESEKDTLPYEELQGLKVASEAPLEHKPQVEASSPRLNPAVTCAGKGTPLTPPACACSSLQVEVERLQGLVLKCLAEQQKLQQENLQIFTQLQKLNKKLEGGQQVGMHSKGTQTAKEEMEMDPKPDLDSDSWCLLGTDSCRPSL
Settings: at 1 µM
measure: inhibition (%)
// return numeric value only (unit: %, not printed)

FC(F)(F)CNc1nccc(-c2cnn3ncccc23)n1	0.64
COc1cc(Nc2ncc(-c3ccccc3)o2)cc(OC)c1	7.35
c1ccc(-c2n[nH]cc2-c2ccnc(-c3ccc(OCCn4ccnc4)cc3)c2)nc1	2.33
COC(=O)Nc1nc2ccc(Oc3ccc(NC(=O)Nc4cc(C(F)(F)F)ccc4F)cc3)cc2s1	-3.04

compound c1cnn2ncc(-c3ccnc(NCCCN4CCOCC4)n3)c2c1 , inhibition observed: 9.51

compound Cc1cc(O)cc(C)c1/C=C/c1cncc(C(N)=O)c1 , inhibition observed: 0.49
